# credit: patent EP4692090A1

Each entry below lists one item and its recorded IC50 value.
System: LoVo cells
PROTOCOL_DETAILS: LoVo cell proliferation assay (CellTiter-Glo)
Assay type: cell-based
RUN_CONDITIONS: read-out: LoVo IC50; LoVo cells, 2,000 cells per well, 5 days incubation, CellTiter-Glo; maximum concentration 10 µM, 9 concentrations
MEASURED_QUANTITY: IC50

>>> result("CC1c2cc(N3CCOC[C@H]3C)nc3c2c(nn3-c2cc[nH]n2)CCN1C(=O)C1(C(F)(F)F)CC1 (single isomer, unassigned) [Compound 33B]")
"100 to 1000 nM"
>>> result("CC1c2cc(N3CCOC[C@H]3C)nc3c2c(nn3-c2cc[nH]n2)CCN1C(=O)C1(C#N)CC1 (single isomer, unassigned) [Compound 40B]")
"100 to 1000 nM"

###

# pIC50 annotations
TARGET_ENTITY: ATR kinase (Homo sapiens)
Construct: purchased Eurofins 14-953
Sequence (Q13535 whole entry): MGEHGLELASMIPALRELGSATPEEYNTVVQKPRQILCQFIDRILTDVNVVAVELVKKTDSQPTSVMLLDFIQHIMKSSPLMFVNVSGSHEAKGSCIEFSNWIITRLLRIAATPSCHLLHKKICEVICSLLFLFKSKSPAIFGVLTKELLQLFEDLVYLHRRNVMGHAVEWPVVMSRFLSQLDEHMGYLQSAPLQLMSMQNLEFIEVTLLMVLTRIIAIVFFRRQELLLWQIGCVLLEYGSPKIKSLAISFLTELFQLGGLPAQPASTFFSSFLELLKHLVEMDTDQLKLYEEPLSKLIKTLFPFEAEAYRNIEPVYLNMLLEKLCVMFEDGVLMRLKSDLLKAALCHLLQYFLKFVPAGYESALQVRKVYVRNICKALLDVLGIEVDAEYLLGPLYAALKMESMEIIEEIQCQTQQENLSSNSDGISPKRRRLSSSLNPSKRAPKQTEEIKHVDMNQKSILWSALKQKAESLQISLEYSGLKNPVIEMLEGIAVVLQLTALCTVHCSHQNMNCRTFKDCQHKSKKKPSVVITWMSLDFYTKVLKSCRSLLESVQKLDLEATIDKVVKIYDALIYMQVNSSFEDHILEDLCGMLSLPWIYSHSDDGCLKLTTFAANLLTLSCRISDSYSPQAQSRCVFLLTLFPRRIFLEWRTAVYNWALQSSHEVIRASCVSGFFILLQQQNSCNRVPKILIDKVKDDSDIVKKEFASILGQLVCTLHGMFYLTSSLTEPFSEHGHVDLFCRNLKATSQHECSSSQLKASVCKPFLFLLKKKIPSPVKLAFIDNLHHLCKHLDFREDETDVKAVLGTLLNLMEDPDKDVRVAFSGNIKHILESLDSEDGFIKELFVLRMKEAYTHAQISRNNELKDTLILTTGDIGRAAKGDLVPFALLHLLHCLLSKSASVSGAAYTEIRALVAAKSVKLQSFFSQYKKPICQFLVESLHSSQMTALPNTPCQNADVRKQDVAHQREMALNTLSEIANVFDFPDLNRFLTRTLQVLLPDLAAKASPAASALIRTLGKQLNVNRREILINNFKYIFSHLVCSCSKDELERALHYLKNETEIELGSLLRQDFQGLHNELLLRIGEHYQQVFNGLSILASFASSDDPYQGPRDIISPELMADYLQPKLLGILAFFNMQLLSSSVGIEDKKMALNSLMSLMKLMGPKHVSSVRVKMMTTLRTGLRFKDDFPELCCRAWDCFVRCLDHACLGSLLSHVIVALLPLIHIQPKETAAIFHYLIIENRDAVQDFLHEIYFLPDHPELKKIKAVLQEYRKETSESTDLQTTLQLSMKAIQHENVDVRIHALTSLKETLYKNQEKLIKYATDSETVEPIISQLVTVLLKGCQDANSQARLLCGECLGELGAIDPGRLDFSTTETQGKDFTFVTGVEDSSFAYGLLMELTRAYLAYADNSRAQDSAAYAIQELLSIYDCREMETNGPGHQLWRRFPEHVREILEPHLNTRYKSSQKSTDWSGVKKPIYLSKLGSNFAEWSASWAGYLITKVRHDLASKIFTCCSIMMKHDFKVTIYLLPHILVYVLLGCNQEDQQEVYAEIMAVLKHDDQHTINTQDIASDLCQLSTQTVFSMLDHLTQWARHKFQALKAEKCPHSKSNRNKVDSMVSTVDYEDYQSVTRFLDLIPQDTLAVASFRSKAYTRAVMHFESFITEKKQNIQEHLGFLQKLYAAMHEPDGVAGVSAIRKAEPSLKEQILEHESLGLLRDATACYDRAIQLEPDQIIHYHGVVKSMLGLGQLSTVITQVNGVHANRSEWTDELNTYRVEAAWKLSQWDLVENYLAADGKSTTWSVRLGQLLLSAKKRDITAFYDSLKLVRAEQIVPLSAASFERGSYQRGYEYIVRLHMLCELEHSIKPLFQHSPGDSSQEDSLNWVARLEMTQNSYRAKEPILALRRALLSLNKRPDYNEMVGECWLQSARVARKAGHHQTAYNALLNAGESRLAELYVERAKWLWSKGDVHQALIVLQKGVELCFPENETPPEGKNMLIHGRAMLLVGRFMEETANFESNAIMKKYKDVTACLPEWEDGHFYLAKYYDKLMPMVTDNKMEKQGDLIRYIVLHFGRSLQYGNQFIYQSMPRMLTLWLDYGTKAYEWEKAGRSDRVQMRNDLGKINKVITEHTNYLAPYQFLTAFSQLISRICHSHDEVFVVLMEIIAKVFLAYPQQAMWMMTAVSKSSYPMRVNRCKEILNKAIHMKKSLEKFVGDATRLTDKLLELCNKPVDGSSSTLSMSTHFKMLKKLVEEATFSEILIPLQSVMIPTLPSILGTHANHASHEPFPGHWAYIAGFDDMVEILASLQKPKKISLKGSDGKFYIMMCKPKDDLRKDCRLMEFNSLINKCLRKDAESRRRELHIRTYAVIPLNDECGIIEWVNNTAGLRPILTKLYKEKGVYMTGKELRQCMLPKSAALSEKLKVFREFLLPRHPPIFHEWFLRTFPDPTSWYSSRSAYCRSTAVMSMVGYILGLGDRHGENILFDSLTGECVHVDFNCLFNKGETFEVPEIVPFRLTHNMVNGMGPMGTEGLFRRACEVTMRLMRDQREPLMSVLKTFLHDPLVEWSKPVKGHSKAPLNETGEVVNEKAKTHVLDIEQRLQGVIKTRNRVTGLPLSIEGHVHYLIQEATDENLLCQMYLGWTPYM
Sequence (Q8WXE1 whole entry partner): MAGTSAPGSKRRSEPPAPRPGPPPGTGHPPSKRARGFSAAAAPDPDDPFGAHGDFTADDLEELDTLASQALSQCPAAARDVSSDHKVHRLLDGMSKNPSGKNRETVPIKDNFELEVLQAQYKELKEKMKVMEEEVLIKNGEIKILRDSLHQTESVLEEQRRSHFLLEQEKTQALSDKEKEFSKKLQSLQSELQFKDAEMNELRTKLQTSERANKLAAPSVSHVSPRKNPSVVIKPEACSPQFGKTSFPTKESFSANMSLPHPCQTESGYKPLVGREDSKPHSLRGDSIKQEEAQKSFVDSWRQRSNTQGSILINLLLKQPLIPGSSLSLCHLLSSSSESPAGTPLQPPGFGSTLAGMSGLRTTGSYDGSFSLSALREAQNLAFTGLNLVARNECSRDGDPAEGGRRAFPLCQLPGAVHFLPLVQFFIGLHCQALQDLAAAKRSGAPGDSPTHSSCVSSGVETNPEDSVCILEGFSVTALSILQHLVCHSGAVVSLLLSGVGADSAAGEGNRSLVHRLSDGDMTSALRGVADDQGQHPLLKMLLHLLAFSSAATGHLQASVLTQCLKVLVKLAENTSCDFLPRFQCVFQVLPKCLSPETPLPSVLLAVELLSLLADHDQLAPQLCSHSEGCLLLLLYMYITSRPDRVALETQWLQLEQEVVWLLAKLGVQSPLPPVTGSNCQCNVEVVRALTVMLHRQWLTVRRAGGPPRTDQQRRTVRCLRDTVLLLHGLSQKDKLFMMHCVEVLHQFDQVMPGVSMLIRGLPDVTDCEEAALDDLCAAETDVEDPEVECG
PROTOCOL_DETAILS: Inhibitory effect on ATR kinase activity (Caliper mobility shift, FAM-labeled RAD17 peptide substrate)
Assay type: biochemical
RUN_CONDITIONS: 1 nM ATR kinase (Eurofins), 28°C for 3 hours, maximum concentration 1 µM, 10 concentrations, read-out: ATR kinase IC50
pIC50: −log10 of the molar value.
MEASURED_QUANTITY: pIC50

>>> result("CC(C)N1C(=O)CCc2nn(-c3cc[nH]n3)c3nc(N4CCOC[C@H]4C)cc1c23 [Compound 78]")
"> 8.00"
>>> result("CC(C)CN1C(=O)CCn2nc(-c3cc[nH]n3)c3nc(N4CCOC[C@H]4C)cc1c32 [Compound 84]")
"> 8.00"
>>> result("CC1c2cc(N3CCOC[C@H]3C)nc3c2c(nn3-c2cc[nH]n2)CCN1S(=O)(=O)C1CC1 (single isomer, unassigned) [Compound 37B]")
"> 8.00"
>>> result("CC1c2cc(N3CCOC[C@H]3C)nc3c2c(nn3-c2cc[nH]n2)CCN1S(C)(=O)=O (single isomer, unassigned) [Compound 39A]")
"> 8.00"
>>> result("CC(C)C1(O)CCn2nc(-c3cc[nH]n3)c3nc(N4CCOC[C@H]4C)cc1c32 (single isomer, unassigned) [Compound 72A]")
"6.00 to 7.00"
>>> result("C[C@@H]1COCCN1c1cc2c3c(n1)c(-c1cc[nH]n1)nn3CCN(C1CC(F)(F)C1)C2 [Compound 52]")
"7.00 to 8.00"
>>> result("C[C@@H]1COCCN1c1cc2c3c(n1)c(-c1cc[nH]n1)nn3CCC(=O)N2C [Compound 86]")
"6.00 to 7.00"

###

Test system: LoVo cells
PROTOCOL_DETAILS: LoVo cell proliferation assay (CellTiter-Glo)
Assay type: cell-based
RUN_CONDITIONS: Homo sapiens, LoVo, 120 h, LoVo cells, 2,000 cells per well, 5 days incubation, CellTiter-Glo; maximum concentration 10 µM, 9 concentrations; read-out: LoVo IC50
pIC50: −log10 of the molar value.
MEASURED_QUANTITY: pIC50

>>> result("CC(C)S(=O)(=O)N1CCc2nn(-c3cc[nH]n3)c3nc(N4CCOC[C@H]4C)cc(c23)C1 [Compound 24]")
"6.00 to 7.00"
>>> result("C[C@@H]1COCCN1c1cc2c3c(n1)c(-c1cc[nH]n1)nn3CCN2C [Compound 62]")
"< 6.00"
>>> result("C[C@@H]1COCCN1c1cc2c3c(nn(-c4cc[nH]n4)c3n1)CCN(C1CC1)C2=O [Compound 132]")
"> 7.00"
>>> result("C[C@@H]1COCCN1c1cc2c3c(nn(-c4cc[nH]n4)c3n1)CCN(S(=O)(=O)C1CC1)C2C1CC1 (stereo partly shown) [Compound 143]")
"6.00 to 7.00"
